Tested on: OVCAR-3 ovarian
protocol-notes: NCI-60 one-dose screen, 48 h
cond: 10 µM unless noted
About 83,000 compounds went through this panel and 20% of them were active in at least one assay; those are over-represented in the sample as a whole. Calls of active or inactive are those of the source. How the source made its calls: active means growth percent below 10; inactive means the rest.
Field 'call' accepts T (active), F (inactive)

Some solved entries appear below for comparison.
INSERT INTO measurements (compound, system, group) VALUES
  ('COc1cc(/C=C2\C(=O)Nc3ccccc32)ccc1OCc1ccc(Cl)cc1', 'OVCAR-3 ovarian', 'F'),
  ('CC(C)(C)c1ccc(C(=O)Nc2sc3c(c2C(N)=O)CCC(O)C3)cc1 (configuration not stated)', 'OVCAR-3 ovarian', 'F'),
  ('C#CCOC(=O)[C@@H]1CCCN1CC#C', 'OVCAR-3 ovarian', 'F'),
  ('Cn1cc(-c2cc(N)n3nc(-c4cn(C)c5ccccc45)cc3n2)c2ccccc21', 'OVCAR-3 ovarian', 'F');

// outcome(item) with item = `C[C@@H](Nc1c(C#N)cnc2ccc(-c3cnc(Cl)c(NS(C)(=O)=O)c3)cc12)c1ccccc1`
T

// outcome(item) with item = `O=C(CSc1nnc(-c2ccc(Cl)cc2)n1-c1ccccc1)Nc1ccc(Br)cc1`
T

// outcome(item) with item = O=C(NNc1nc2cc(F)ccc2n2c(CN3CC4CNCC4C3)ccc12)c1cnccn1 (configuration not stated)
F

// outcome(item) with item = `N#Cc1c(NC(=O)c2cccc(C(F)(F)F)c2F)sc2c1CCC(=O)C2`
T
